- tested.on: NS5B570-Con1 (Delta-21) (Hepatitis C virus genotype 1b, UniProt Q9WMX2)
- method.description: NS5B inhibition assay
- details: IC50, incorporation of tritiated NMP into acid-insoluble RNA, 2 hours at 37° C.
observable: IC50

# compound, observable, reported.value
rows = [
    ("C#CC1(O)C(O)C(COP(O)(=S)OP(=O)(O)OP(=O)(O)O)OC1n1ccc(=O)[nH]c1=O (centres unmarked) [Compound 23a]", "IC50", "< 1 µM"),
    ("C#CC1(O)C(O)C(COP(O)(=S)OP(=O)(O)OP(=O)(O)O)OC1n1ccc(=O)[nH]c1=O (centres unmarked) [Compound 24a]", "IC50", "< 10 µM"),
]
